Assay System: kappa opiate receptor (Cavia porcellus)
Construct: guinea pig cortices and cerebella were homogenized in 40 mL of Buffer A; from tissue; host or cells: guinea pig cortices and cerebella, crude membrane suspension
Sequence (P41144 whole entry): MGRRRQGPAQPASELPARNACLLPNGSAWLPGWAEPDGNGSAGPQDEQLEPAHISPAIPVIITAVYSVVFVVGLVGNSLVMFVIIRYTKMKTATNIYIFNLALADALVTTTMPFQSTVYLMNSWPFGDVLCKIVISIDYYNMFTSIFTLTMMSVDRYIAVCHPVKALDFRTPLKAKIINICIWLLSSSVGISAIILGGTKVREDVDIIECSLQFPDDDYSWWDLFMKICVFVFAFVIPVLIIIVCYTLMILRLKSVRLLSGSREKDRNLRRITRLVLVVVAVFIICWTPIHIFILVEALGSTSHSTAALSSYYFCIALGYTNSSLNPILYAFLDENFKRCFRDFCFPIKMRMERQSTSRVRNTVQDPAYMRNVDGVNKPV
Method Summary: Inhibition of tritiated U69,593 binding to the kappa opiate receptor in guinea pig brain homogenates
Condition Description: inhibition of [3H]U69,593 binding; 3 nm tritiated U69,593, guinea pig brain membranes
Answer Not fulfilled if % Inhibition is under 20%, and Fulfilled if it is 20% or more.

{"Compound": "Cc1cccc(Cc2nc(C(C)C)c3n2C(C(C)C)C(=O)N3)c1 (racemic)", "Discrete Label": "Not fulfilled"}
{"Compound": "CCC(CC)c1nc(C(C)C)c2n1C(C(C)C)C(=O)N2 (stereo not drawn)", "Discrete Label": "Fulfilled"}
{"Compound": "CCC(c1ccccc1)c1nc(C(C)C)c2n1C(C(C)C)C(=O)N2 (mixture of isomers)", "Discrete Label": "Not fulfilled"}
{"Compound": "CCC(C)c1nc(C(C)C)c2n1C(C(C)C)C(=O)N2 (mixture of isomers)", "Discrete Label": "Fulfilled"}
{"Compound": "CC(C)c1nc(Cc2cccc(F)c2)n2c1NC(=O)C2C(C)C (racemic)", "Discrete Label": "Fulfilled"}
{"Compound": "CC(C)c1nc(Cc2ccc(-c3ccccc3)cc2)n2c1NC(=O)C2C(C)C (racemic)", "Discrete Label": "Fulfilled"}
{"Compound": "CC(C)c1nc(C(C2CCCCC2)C2CCCCC2)n2c1NC(=O)C2C(C)C (stereo not drawn)", "Discrete Label": "Fulfilled"}
{"Compound": "Cc1nc(C(C)C)c2n1C(C(C)C)C(=O)N2 (stereo not drawn) [Pool 142]", "Discrete Label": "Fulfilled"}
{"Compound": "Cc1nc(C)n2c1NC(=O)C2C(C)C (stereo not drawn) [Pool 51]", "Discrete Label": "Fulfilled"}
{"Compound": "Cc1ncc2n1C(C(C)C)C(=O)N2 (stereo not drawn)", "Discrete Label": "Fulfilled"}
{"Compound": "CC(C)c1nc(Cc2cccc(C(F)(F)F)c2)n2c1NC(=O)C2C(C)C (racemic)", "Discrete Label": "Fulfilled"}
{"Compound": "CCCCc1nc(C)n2c1NC(=O)C2C(C)C (racemic) [Pool 60]", "Discrete Label": "Not fulfilled"}
{"Compound": "Cc1nc(C(C)C)c2n1C(CC1CCCCC1)C(=O)N2 (stereo not drawn)", "Discrete Label": "Not fulfilled"}
{"Compound": "Cc1nc(C(C)C)c2n1C(C(C)C)C(=O)N2 (stereo not drawn) [Pool 52]", "Discrete Label": "Fulfilled"}
{"Compound": "CCCC1C(=O)Nc2c(C(C)C)nc(C)n21 (stereo not drawn) [Pool 12]", "Discrete Label": "Fulfilled"}
{"Compound": "CC(C)c1nc(Cc2cccc(Br)c2)n2c1NC(=O)C2C(C)C (racemic)", "Discrete Label": "Fulfilled"}
{"Compound": "CC(C)c1nc(Cc2ccccc2)n2c1NC(=O)C2C(C)C (racemic)", "Discrete Label": "Fulfilled"}
{"Compound": "Cc1nc(C(C)C)c2n1C(C(C)C)C(=O)N2 (stereo not drawn) [Pool 3]", "Discrete Label": "Fulfilled"}
{"Compound": "CC(C)c1nc(C2CCCC2)n2c1NC(=O)C2C(C)C (stereo not drawn)", "Discrete Label": "Fulfilled"}
{"Compound": "CC(C)c1nc(C2CCC2)n2c1NC(=O)C2C(C)C (stereo not drawn)", "Discrete Label": "Fulfilled"}

Data origin: patent US6545032B1
